Data origin: paper PMC5761213

biological target: CYP2C19 (Homo sapiens, UniProt P33261); test: CYP inhibition assay in human liver microsomes, S-mephenytoin probe; type: in vitro ADME; conditions: IC50 calculated without SC, Single, pooled human liver microsomes, analyte-to-IS peak area ratio
Sequence (P33261 whole entry): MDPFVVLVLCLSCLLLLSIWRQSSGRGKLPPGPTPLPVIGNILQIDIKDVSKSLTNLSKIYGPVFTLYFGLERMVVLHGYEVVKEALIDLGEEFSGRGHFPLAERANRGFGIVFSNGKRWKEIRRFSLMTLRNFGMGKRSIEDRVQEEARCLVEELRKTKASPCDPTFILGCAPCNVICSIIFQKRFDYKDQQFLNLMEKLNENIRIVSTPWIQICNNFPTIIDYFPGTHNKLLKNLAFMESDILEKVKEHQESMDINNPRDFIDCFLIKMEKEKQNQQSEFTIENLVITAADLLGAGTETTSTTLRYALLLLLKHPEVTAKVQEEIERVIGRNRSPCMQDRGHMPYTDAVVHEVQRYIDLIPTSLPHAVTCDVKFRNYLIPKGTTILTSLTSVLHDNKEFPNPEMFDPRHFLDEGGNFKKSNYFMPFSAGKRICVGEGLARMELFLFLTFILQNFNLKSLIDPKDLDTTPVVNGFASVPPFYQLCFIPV
experimental_endpoint: IC50 (µM)
Lab book: enter the figure in µM, no units written.

I'd like to know its IC50. The molecule in question is C=C(C)[C@@H]1CCC2=CC(=O)C[C@@H](C)[C@]2(C)C1
7.19
